The entries below are paired with their reported IC50.
target: Epidermal growth factor receptor (Homo sapiens, UniProt P00533, L858R/T790M); test: Inhibition of GST-tagged human recombinant EGFR catalytic domain (668 to 1210 amino acids) T790M/L858R mutant expressed in Sf9 cells pre-incubated for 30 mins before ATP and substrate addition by homogeneous time-resolved FRET assay
Sequence (P00533 25-1210 T790M/L858R limits assumed): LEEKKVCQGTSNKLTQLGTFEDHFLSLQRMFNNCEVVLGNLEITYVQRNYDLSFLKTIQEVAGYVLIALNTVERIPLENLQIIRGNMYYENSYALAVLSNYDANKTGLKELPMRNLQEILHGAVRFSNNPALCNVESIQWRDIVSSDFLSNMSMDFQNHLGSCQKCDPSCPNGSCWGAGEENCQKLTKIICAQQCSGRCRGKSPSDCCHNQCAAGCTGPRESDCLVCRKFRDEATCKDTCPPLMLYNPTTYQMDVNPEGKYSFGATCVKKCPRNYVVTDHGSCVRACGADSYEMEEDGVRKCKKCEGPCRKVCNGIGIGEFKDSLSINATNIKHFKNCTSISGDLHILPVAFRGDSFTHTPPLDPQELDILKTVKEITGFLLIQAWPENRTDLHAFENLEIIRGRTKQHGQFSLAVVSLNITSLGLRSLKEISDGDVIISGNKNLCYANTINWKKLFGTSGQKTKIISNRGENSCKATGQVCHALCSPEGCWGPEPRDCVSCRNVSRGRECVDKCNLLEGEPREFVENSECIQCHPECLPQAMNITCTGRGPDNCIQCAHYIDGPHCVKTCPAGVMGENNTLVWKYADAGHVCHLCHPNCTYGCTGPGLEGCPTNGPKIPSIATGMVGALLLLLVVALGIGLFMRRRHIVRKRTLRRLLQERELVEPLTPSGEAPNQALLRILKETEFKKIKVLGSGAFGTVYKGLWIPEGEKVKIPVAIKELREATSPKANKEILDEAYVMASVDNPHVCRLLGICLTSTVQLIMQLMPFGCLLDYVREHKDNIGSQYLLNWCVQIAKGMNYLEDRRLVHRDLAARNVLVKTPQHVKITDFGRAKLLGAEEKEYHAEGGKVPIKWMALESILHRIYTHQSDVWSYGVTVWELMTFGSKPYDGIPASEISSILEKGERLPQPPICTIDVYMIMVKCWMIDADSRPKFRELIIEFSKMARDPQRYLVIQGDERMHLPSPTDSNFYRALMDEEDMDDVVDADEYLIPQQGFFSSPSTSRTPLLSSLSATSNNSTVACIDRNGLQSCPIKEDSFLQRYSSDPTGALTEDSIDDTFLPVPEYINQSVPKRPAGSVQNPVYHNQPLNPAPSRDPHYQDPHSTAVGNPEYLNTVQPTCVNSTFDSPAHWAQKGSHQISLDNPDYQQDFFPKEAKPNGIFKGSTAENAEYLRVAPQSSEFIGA

Query Smiles | IC50
COc1cc(N2CCN(C)CC2)ccc1Nc1ncc(Cl)c(Oc2cccc(NC(=O)/C(C#N)=C/C(C)C)c2)n1 | 800 nM
COc1cc(N2CCN(C)CC2)ccc1Nc1ncc(Cl)c(Oc2cccc(NC(=O)/C(C#N)=C/c3cccc([N+](=O)[O-])c3)c2)n1 | 720 nM
COc1cc(N2CCN(C)CC2)ccc1Nc1ncc(Cl)c(Oc2cccc(NC(C)=O)c2)n1 | 180 nM
COc1cc(N2CCN(C)CC2)ccc1Nc1ncc(Cl)c(Oc2cccc(NC(=O)CCC3CC3)c2)n1 | 770 nM
COc1cc(N2CCN(C)CC2)ccc1Nc1ncc(Cl)c(Oc2cccc(NC(=O)/C(C#N)=C/C(C)(C)C)c2)n1 | 400 nM
COc1cc(N2CCN(C)CC2)ccc1Nc1ncc(Cl)c(Oc2cccc(NC(=O)/C(C#N)=C/c3ccc(SC)cc3)c2)n1 | 510 nM
